Test system: NK-cells activity (lymphocytes) against K-562 cells
assay explanation: Inhibition of NK-cells activity (chromium release cytotoxicity of lymphocytes against K-562)
Type: cell-based, human
condition summary: 3 mg/ml oligosaccharide; experiment 1 (without inhibitor 22.3); ratio 20:1
reported property: % specific cytotoxicity (%)
Answer in %, number only, no unit symbol.

Reference set, count: 3
compound	unit string	value
CC(=O)N[C@H]1[C@H](O[C@@H]2[C@@H](OC[C@H]3O[C@@H](O[C@H]4[C@H](O)[C@@H](NC(C)=O)C(O)O[C@@H]4CO)[C@@H](O)[C@@H](O[C@H]4O[C@H](CO)[C@@H](O)[C@H](O)[C@@H]4O[C@@H]4O[C@H](CO)[C@@H](O[C@@H]5O[C@H](CO)[C@H](O)[C@H](O)[C@H]5O)[C@H](O)[C@H]4NC(C)=O)[C@@H]3O)O[C@H](CO)[C@@H](O)[C@@H]2O)O[C@H](CO)[C@@H](O[C@@H]2O[C@H](CO)[C@H](O)[C@H](O)[C@H]2O)[C@@H]1O (stereo partly shown)	%	1.7
CC(=O)N[C@H]1[C@H](O[C@@H]2[C@@H](OC[C@H]3O[C@@H](O[C@H]4[C@H](O)[C@@H](NC(C)=O)C(O)O[C@@H]4CO)[C@@H](O)[C@@H](O)[C@@H]3O)O[C@H](CO)[C@@H](O)[C@@H]2O)O[C@H](CO)[C@@H](O[C@@H]2O[C@H](CO)[C@H](O)[C@H](O)[C@H]2O)[C@@H]1O (stereo partly shown)	%	-1.4
CC(=O)NC1C(O)CC(OC2C(O)C(CO)OC(OC3C(CO)OC(O)C(O)C3O)C2O)(C(=O)O)OC1C(O)C(O)CO (stereo not drawn) [3'siallyl-lactose, α-NeuNAcp-(2-3)-β-Galp-(1-4)-Glc, reference compound]	%	20.0

We now examine a further compound.
Prompt line: # get_value(readout='% specific cytotoxicity', item= CC(=O)NC1C(O)CC(OCC2OC(OC3C(CO)OC(O)C(O)C3O)C(O)C(O)C2O)(C(=O)O)OC1C(O)C(O)CO (stereo not drawn) [6'siallyl-lactose, α-NeuNAcp-(2-6)-β-Galp-(1-4)-Glc, reference compound] )
Response line: 9.6

###

Tested on: NK-cells activity (lymphocytes) against K-562 cells
assay explanation: Inhibition of NK-cells activity (chromium release cytotoxicity of lymphocytes against K-562)
Type: cell-based, human
condition summary: 1 mg/ml oligosaccharide; experiment 2 (without inhibitor 32.0); ratio 20:1
// % specific cytotoxicity lookup, one value per entry
Your answer should be a plain number; it is taken to be in %.

Consider the following illustrative entries.
compound	% specific cytotoxicity, %
CC(=O)NC1C(O)CC(OC2C(O)C(CO)OC(OC3C(CO)OC(O)C(O)C3O)C2O)(C(=O)O)OC1C(O)C(O)CO (stereo not drawn) [3'siallyl-lactose, α-NeuNAcp-(2-3)-β-Galp-(1-4)-Glc, reference compound]	19.7
CC(=O)N[C@H]1[C@H](O[C@@H]2[C@@H](OC[C@H]3O[C@@H](O[C@H]4[C@H](O)[C@@H](NC(C)=O)C(O)O[C@@H]4CO)[C@@H](O)[C@@H](O)[C@@H]3O)O[C@H](CO)[C@@H](O)[C@@H]2O)O[C@H](CO)[C@@H](O[C@@H]2O[C@H](CO)[C@H](O)[C@H](O)[C@H]2O)[C@@H]1O (stereo partly shown)	2.7
CC(=O)N[C@H]1[C@H](O[C@@H]2[C@@H](OC[C@H]3O[C@@H](O[C@H]4[C@H](O)[C@@H](NC(C)=O)C(O)O[C@@H]4CO)[C@@H](O)[C@@H](O[C@H]4O[C@H](CO)[C@@H](O)[C@H](O)[C@@H]4O[C@@H]4O[C@H](CO)[C@@H](O[C@@H]5O[C@H](CO)[C@H](O)[C@H](O)[C@H]5O)[C@H](O)[C@H]4NC(C)=O)[C@@H]3O)O[C@H](CO)[C@@H](O)[C@@H]2O)O[C@H](CO)[C@@H](O[C@@H]2O[C@H](CO)[C@H](O)[C@H](O)[C@H]2O)[C@@H]1O (stereo partly shown)	25.0

# ---- query compound ----
Prompt line: Name the reported % specific cytotoxicity value associated with the compound CC(=O)NC1C(O)CC(OCC2OC(OC3C(CO)OC(O)C(O)C3O)C(O)C(O)C2O)(C(=O)O)OC1C(O)C(O)CO (stereo not drawn) [6'siallyl-lactose, α-NeuNAcp-(2-6)-β-Galp-(1-4)-Glc, reference compound]
Response line: 17.2

###

Quick reference for minimal effective concentration among some molecules
Test system: haemagglutination between sheep erythrocytes and S. saprophyticus bacteria (Mc 2 and Mc 194)
assay explanation: Inhibition of haemagglutination of sheep erythrocytes with Staphylococcus saprophyticus
Assay type: cell-based
condition summary: Staphylococcus saprophyticus, Erythrocyte, read-out: Minimum inhibitory con.

The examples below pair each entry with its known result.
molecule	minimal effective concentration
CC(=O)NC1C(O)CC(OCC2OC(OC3C(CO)OC(O)C(O)C3O)C(O)C(O)C2O)(C(=O)O)OC1C(O)C(O)CO (stereo not drawn) [6'siallyl-lactose, α-NeuNAcp-(2-6)-β-Galp-(1-4)-Glc, reference compound]	> 2500 µg/mL
CC(=O)N[C@H]1[C@H](O[C@@H]2[C@@H](OC[C@H]3O[C@@H](O[C@H]4[C@H](O)[C@@H](NC(C)=O)C(O)O[C@@H]4CO)[C@@H](O)[C@@H](O[C@H]4O[C@H](CO)[C@@H](O)[C@H](O)[C@@H]4O[C@@H]4O[C@H](CO)[C@@H](O[C@@H]5O[C@H](CO)[C@H](O)[C@H](O)[C@H]5O)[C@H](O)[C@H]4NC(C)=O)[C@@H]3O)O[C@H](CO)[C@@H](O)[C@@H]2O)O[C@H](CO)[C@@H](O[C@@H]2O[C@H](CO)[C@H](O)[C@H](O)[C@H]2O)[C@@H]1O (stereo partly drawn)	200 µg/mL
CC(=O)N[C@H]1C(O)O[C@H](CO)[C@@H](O[C@@H]2O[C@H](CO)[C@H](O)[C@H](O)[C@H]2O)[C@@H]1O (stereo partly drawn)	300 µg/mL
OC[C@H]1O[C@H](O[C@H]2[C@@H](O)[C@@H](CO)OC(O)[C@@H]2O)[C@H](O)[C@@H](O)[C@H]1O (stereo partly drawn)	> 2500 µg/mL
OC[C@H]1O[C@@H](OC[C@H]2OC(O)[C@H](O)[C@@H](O)[C@H]2O)[C@H](O)[C@@H](O)[C@H]1O (stereo partly drawn)	> 2500 µg/mL

Prompt line: Find the recorded minimal effective concentration belonging to OC[C@H]1O[C@@H](O[C@H]2[C@H](O)[C@@H](O)C(O)O[C@@H]2CO)[C@H](O)[C@@H](O)[C@H]1O (stereo partly drawn) [β-Galp-(1-4)-Glc, reference compound] and report it.
Response line: > 2500 µg/mL

Prompt line: Param item = `CO[C@@H]1O[C@H](CO)[C@@H](O[C@@H]2O[C@H](CO)[C@H](O)[C@H](O)[C@H]2O)[C@H](O)[C@H]1NC(C)=O` ; retrieve measured minimal effective concentration.
Response line: 250 µg/mL

Prompt line: Dear colleague, I am looking for the recorded minimal effective concentration of the following molecule: OC[C@H]1O[C@@H](O[C@H]2[C@@H](O)[C@@H](CO)O[C@@H](O[C@H]3[C@@H](O)[C@@H](CO)OC(O)[C@@H]3O)[C@@H]2O)[C@H](O)[C@@H](O)[C@H]1O (stereo partly drawn)
Response line: > 2500 µg/mL

Prompt line: Which minimal effective concentration value is on record for CC(=O)N[C@H]1[C@H](O[C@H]2[C@@H](O)[C@@H](CO)O[C@H](O[C@@H]3[C@H](O)[C@@H](O)[C@H](O[C@H]4[C@H](O)[C@@H](O)C(O)O[C@@H]4CO)O[C@@H]3CO)[C@@H]2O)O[C@H](CO)[C@H](O)[C@@H]1O (stereo partly drawn) ?
Response line: > 2500 µg/mL

###

System: NK-cells activity (lymphocytes) against K-562 cells
assay explanation: Inhibition of NK-cells activity (chromium release cytotoxicity of lymphocytes against K-562)
Assay type: cell-based, human
condition summary: 0.3 mg/ml oligosaccharide; experiment 2 (without inhibitor 32.0); ratio 20:1
Procedure: Lymphocytes isolated from peripheral blood drained from normal donors have the ability of exerting a cytotoxic, (i.e. cell killing activity against certain types of cells in culture. In the instant example there is used a human leukemia cell line called K-562 as a target cell for such cytolytic activity. Method: K-562 cells intracellularly labelled with radioactive chromium are incubated with effector cells (lymphocytes) for 4 hours at 37° C. […]
reported property: % specific cytotoxicity (%)
Supply the numeric figure in %, leaving out any unit text.

Look over these answered cases.
molecule	value
CC(=O)N[C@H]1[C@H](O[C@@H]2[C@@H](OC[C@H]3O[C@@H](O[C@H]4[C@H](O)[C@@H](NC(C)=O)C(O)O[C@@H]4CO)[C@@H](O)[C@@H](O[C@H]4O[C@H](CO)[C@@H](O)[C@H](O)[C@@H]4O[C@@H]4O[C@H](CO)[C@@H](O[C@@H]5O[C@H](CO)[C@H](O)[C@H](O)[C@H]5O)[C@H](O)[C@H]4NC(C)=O)[C@@H]3O)O[C@H](CO)[C@@H](O)[C@@H]2O)O[C@H](CO)[C@@H](O[C@@H]2O[C@H](CO)[C@H](O)[C@H](O)[C@H]2O)[C@@H]1O (stereo partly shown)	28.0
CC(=O)N[C@H]1[C@H](O[C@@H]2[C@@H](OC[C@H]3O[C@@H](O[C@H]4[C@H](O)[C@@H](NC(C)=O)C(O)O[C@@H]4CO)[C@@H](O)[C@@H](O)[C@@H]3O)O[C@H](CO)[C@@H](O)[C@@H]2O)O[C@H](CO)[C@@H](O[C@@H]2O[C@H](CO)[C@H](O)[C@H](O)[C@H]2O)[C@@H]1O (stereo partly shown)	13.9
CC(=O)NC1C(O)CC(OCC2OC(OC3C(CO)OC(O)C(O)C3O)C(O)C(O)C2O)(C(=O)O)OC1C(O)C(O)CO (stereo not drawn) [6'siallyl-lactose, α-NeuNAcp-(2-6)-β-Galp-(1-4)-Glc, reference compound]	20.2

Proceeding to the next molecule to report its % specific cytotoxicity.
Prompt line: # query: % specific cytotoxicity of entry CC(=O)NC1C(O)CC(OC2C(O)C(CO)OC(OC3C(CO)OC(O)C(O)C3O)C2O)(C(=O)O)OC1C(O)C(O)CO (stereo not drawn) [3'siallyl-lactose, α-NeuNAcp-(2-3)-β-Galp-(1-4)-Glc, reference compound]
Response line: 28.7

The values you see were collected from patent US4851338A.
